Provide the recorded LD50 for the entries that follow.
# run-description: Toxicity in po dosed albino rat
# Assay type: organism-based
# condition-details: in vivo
Answers are plain numbers, in mg/kg.

As a guide, the following entries are already answered.
line-notation	LD50 (mg/kg)
COc1ccc(NS(=O)(=O)c2c(O)c(C(=O)O)c(OC)c3ccoc23)cc1	396
COc1c(C(=O)O)c(O)c(S(=O)(=O)Nc2ccc(C)cc2)c2occc12	396
COc1c(C(=O)O)c(O)c(S(N)(=O)=O)c2occc12	400
COc1c(C(=O)O)c(O)c(S(=O)(=O)Nc2ccc(Cl)cc2Cl)c2occc12	410
COc1c(C(=O)O)c(O)c(/N=N/c2ccccc2)c2occc12	410
COc1c(C(=O)O)c(O)c(N)c2occc12	396

List the reported LD50 of each molecule below.
1. COc1c(C(=O)O)c(O)c(NS(=O)(=O)c2ccc(Cl)cc2)c2occc12
2. COc1c(C(=O)O)c(O)c(NS(=O)(=O)c2ccccc2)c2occc12

1. 390
2. 400

* * *

# run-description: Toxicity in po dosed albino rat
# Assay type: organism-based
# condition-details: in vivo
quantity-name: LD50

As a guide, the following entries are already answered.
line-notation	LD50
COc1c(C(=O)O)c(O)c(S(=O)(=O)Nc2ccc(Cl)cc2)c2occc12	410 mg/kg
COc1c(C(=O)O)c(O)c(/N=N/c2ccc(S(=O)(=O)Nc3ccccn3)cc2)c2occc12	410 mg/kg
COc1c(C(=O)O)c(O)c(S(=O)(=O)Cl)c2occc12	390 mg/kg
COc1c(C(=O)O)c(O)c(NS(=O)(=O)c2ccc(C)cc2)c2occc12	400 mg/kg

LD50 reading for COc1c(C(=O)O)c(O)c(S(=O)(=O)Nc2ccccc2)c2occc12 : 396 mg/kg

* * *

# System: Rattus norvegicus
# run-description: Antiulcerogenic activity against acetic acid-induced ulcerative colitis in albino rat assessed as ratio of wet weight and length at 12.5 mmol/kg, po
# Type: functional
Provide the recorded Ratio for the entries that follow.
Numbers only.

As a guide, the following entries are already answered.
compound	value-reported
COc1c(C(=O)O)c(O)c(/N=N/c2ccccc2)c2occc12	84.5
COc1c(C(=O)O)c(O)c(S(=O)(=O)Nc2ccc(C)cc2)c2occc12	111

List the reported Ratio of each compound below.
1. COc1c(C(=O)O)c(O)c(S(=O)(=O)Nc2ccccc2)c2occc12
2. COc1ccc(NS(=O)(=O)c2c(O)c(C(=O)O)c(OC)c3ccoc23)cc1
3. COc1c(C(=O)O)c(O)c(NS(=O)(=O)c2ccc(Cl)cc2)c2occc12
4. O=C(O)c1cc(/N=N/c2ccc(S(=O)(=O)Nc3ccccn3)cc2)ccc1O [SULFASALAZINE]
5. COc1c(C(=O)O)c(O)c(NS(=O)(=O)c2ccccc2)c2occc12

1. 119.9
2. 120.1
3. 86.4
4. 79
5. 99.1

* * *

# Tested on: Escherichia coli
# run-description: Antibacterial activity agaisnt Escherichia coli MTCC 8739 by agar diffusion method
# Type: functional
quantity-name: diameter of the inhibition zone (DIZ) (mm)
One number for each entry, in mm.

As a guide, the following entries are already answered.
molecule	diameter of the inhibition zone (DIZ) [mm]
COc1c(C(=O)O)c(O)c(/N=N/c2ccccc2)c2occc12	10
COc1c(C(=O)O)c(O)c(S(=O)(=O)Nc2ccc(Cl)cc2)c2occc12	12
COc1c(C(=O)O)c(O)c(S(=O)(=O)Nc2ccc(C)cc2)c2occc12	12
COc1c(C(=O)O)c(O)c(/N=N/c2ccc(S(=O)(=O)Nc3ccccn3)cc2)c2occc12	12
COc1c(C(=O)O)c(O)c(N)c2occc12	10

List the reported diameter of the inhibition zone (DIZ) of each molecule below.
1. COc1c(C(=O)O)c(O)c(S(=O)(=O)Cl)c2occc12
2. O=C(O)c1cc(/N=N/c2ccc(S(=O)(=O)Nc3ccccn3)cc2)ccc1O [SULFASALAZINE]
3. COc1c(C(=O)O)c(O)c(S(N)(=O)=O)c2occc12

[8, 8, 8]

* * *

# Test system: Rattus norvegicus
# run-description: Antiulcerogenic activity against acetic acid-induced ulcerative colitis in albino rat assessed as ratio of wet weight and length at 12.5 mmol/kg, po
# Type: functional
Criterion: Ratio meeting or surpassing 100. Met: 1. Not met: -1.

Does the reported Ratio for COc1c(C(=O)O)c(O)c(S(=O)(=O)Nc2ccc(Cl)cc2)c2occc12 fall at or above the 100 mark?
1

* * *

# System: Rattus norvegicus
# run-description: Antiulcerogenic activity against acetic acid-induced ulcerative colitis in albino rat assessed as ratio of wet weight and length at 12.5 mmol/kg, po
# Type: functional
Ratio strictly less than 100 = fulfilled. Otherwise not fulfilled.

Solved entries:
line-notation	class-name
COc1c(C(=O)O)c(O)c(S(=O)(=O)Nc2ccc(Cl)cc2Cl)c2occc12	not fulfilled
COc1c(C(=O)O)c(O)c(N)c2occc12	fulfilled
COc1c(C(=O)O)c(O)c(/N=N/c2ccc(S(=O)(=O)Nc3ccccn3)cc2)c2occc12	fulfilled

Lab log: compare recorded Ratio with 100; is it strictly lower for COc1c(C(=O)O)c(O)c(S(=O)(=O)Cl)c2occc12 ?
not fulfilled

Lab log: compare recorded Ratio with 100; is it strictly lower for COc1c(C(=O)O)c(O)c(S(N)(=O)=O)c2occc12 ?
not fulfilled

Source of measurements: ChEMBL document CHEMBL1240431
